Tested on: MDA-MB-468 breast
Assay: NCI tumour cell line growth inhibition, 48 h
reported endpoint: log10 TGI (log10 of the value in µM)

{"columns": ["compound", "log10 TGI"],
 "data": [
  ["CNCc1ccc(-c2cc(-c3nc(-c4ccc(S(=O)(=O)C(C)C)cc4)cnc3N)on2)cc1", 1.31],
  ["COc1cccc2nc(Nc3cccc(NC(=O)c4ccc(CN5CCCN(C)CC5)c(C(F)(F)F)c4)c3)ccc12", 0.47],
  ["Cc1cnc(C(=O)NNc2nc3sc4c(c3c(=O)[nH]2)C(C)CCC4)cn1 (configuration not stated)", 0.78],
  ["COc1ccc(-c2nc3ccc(Cc4ccc5nc(-c6ccc(OC)cc6)[nH]c5c4)cc3[nH]2)cc1", -0.81],
  ["Cc1cc(Cl)nc(N(CCNc2ccnc3cc(Cl)ccc23)Cc2ccco2)n1", 0.54],
  ["Nc1nc(=S)c2ncn(C3OC(COP(=O)(O)O)C(O)C3O)c2[nH]1 (configuration not stated)", 0.80],
  ["CC(=O)NC1C(O[C@H]2C[C@H]3[C@@H]4CC=C5C[C@@H](O)CC[C@]5(C)[C@H]4CC[C@]3(C)[C@H]2[C@H](C)C(=O)CCC(C)C)OCC(O)C1O (some centres not stated)", 1.02]
]}

meta.source: PubChem BioAssay (NCI)
